systemUnderTest: Acetylcholinesterase (Electrophorus electricus, UniProt O42275)
Sequence (O42275 whole entry): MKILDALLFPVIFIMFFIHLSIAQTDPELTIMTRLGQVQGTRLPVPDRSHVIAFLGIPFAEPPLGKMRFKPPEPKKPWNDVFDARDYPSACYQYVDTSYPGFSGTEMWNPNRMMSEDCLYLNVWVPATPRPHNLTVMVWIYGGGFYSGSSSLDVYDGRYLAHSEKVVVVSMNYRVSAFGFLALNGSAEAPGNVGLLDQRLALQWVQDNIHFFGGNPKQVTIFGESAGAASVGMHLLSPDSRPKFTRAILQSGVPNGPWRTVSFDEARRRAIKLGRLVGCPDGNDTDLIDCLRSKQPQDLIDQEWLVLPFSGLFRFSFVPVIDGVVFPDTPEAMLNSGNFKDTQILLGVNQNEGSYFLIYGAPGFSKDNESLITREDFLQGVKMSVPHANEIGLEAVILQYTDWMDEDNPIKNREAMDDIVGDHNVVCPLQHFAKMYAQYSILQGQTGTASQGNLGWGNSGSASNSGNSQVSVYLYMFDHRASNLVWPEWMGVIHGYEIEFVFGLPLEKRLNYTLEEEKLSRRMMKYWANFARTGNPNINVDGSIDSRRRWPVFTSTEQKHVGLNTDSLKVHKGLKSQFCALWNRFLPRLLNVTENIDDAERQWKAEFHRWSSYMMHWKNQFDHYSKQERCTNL
protocol: Inhibition of Electrophorus electricus (electric eel) acetylcholinesterase (AChE) using acetylthiocholine iodide substrate by Ellman method based colorimetry
statedConditions: read-out: Ki
pKi: −log10 of the molar value.
Assign Y to entries whose pKi meets or exceeds 4; assign N to the rest.

>  <molecule>
CC1=CCC(C(C)C)=CC1

>  <assignedLabel>
N

$$$$
>  <molecule>
CC12CCC(C1)C(C)(C)C2=O (configuration not stated)

>  <assignedLabel>
N

$$$$
>  <molecule>
CC12CCC(CC1=O)C2(C)C (configuration not stated)

>  <assignedLabel>
Y

$$$$

Lookup: Dear colleague, could you confirm whether C=C(C)[C@H]1CC=C(C)C(=O)C1 [(S)(+)CARVONE] has pKi at or above 4?
Found: N

Lookup: Another: C=CC(C)(O)CCC=C(C)C (configuration not stated)
Found: N

Lookup: Another: C=CCc1ccc(OC)cc1
Found: N
